Value source: patent US7164021B2

# STUDY TARGET: mu receptor (Homo sapiens, UniProt P35372)
# Sequence (P35372 whole entry): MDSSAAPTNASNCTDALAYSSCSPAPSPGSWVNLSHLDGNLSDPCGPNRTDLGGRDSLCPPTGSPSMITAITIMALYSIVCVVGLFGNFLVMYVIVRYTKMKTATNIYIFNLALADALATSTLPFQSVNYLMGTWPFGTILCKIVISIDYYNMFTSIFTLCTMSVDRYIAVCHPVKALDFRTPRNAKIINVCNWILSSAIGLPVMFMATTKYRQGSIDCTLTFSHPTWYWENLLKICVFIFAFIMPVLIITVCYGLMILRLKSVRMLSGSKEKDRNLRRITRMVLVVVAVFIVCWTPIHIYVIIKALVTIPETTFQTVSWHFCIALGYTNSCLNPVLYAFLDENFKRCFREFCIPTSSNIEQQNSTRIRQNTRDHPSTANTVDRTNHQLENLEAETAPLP
pKi: −log10 of the molar value.
RESULT TYPE: pKi

# COMPOUND, VALUE MEASURED
rows = [
    ("Oc1cccc(-n2cnnc2-c2cccc(-c3ccccc3)c2)c1", 6.00),
]

###

# STUDY TARGET: delta receptor (Homo sapiens)
# Sequence (P41143 whole entry): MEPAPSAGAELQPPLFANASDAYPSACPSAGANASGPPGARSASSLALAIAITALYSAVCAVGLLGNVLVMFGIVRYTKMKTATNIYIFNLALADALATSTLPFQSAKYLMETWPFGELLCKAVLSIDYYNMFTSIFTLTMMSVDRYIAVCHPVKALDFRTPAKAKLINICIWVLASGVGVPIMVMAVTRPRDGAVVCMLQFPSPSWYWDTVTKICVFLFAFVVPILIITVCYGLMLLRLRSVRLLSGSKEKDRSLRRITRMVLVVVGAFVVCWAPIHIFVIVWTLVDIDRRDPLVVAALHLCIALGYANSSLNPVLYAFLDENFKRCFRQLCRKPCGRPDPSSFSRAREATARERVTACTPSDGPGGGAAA
# MEASUREMENT PROTOCOL: Competitive analysis vs 3H-Bremazocine, delta receptor
# REPORTED CONDITIONS: competitive analysis; 1.64 nM 3H-Bremazocine; dose response curve FIG. 7A; read-out: Representative Ki δ (delta binding affinity)
pKi: −log10 of the molar value.

# COMPOUND, pKi
rows = [
    ("Oc1cccc(-n2cnnc2-c2cccc(-c3ccccc3)c2)c1", 6.85),
]
